Data origin, for the record: PubChem BioAssay (NCI)

Test system: MOLT-4 leukemia
assay text: NCI-60 one-dose screen, 48 h (100 = growth as untreated, 0 = no growth, -100 = all killed)
setup conditions: 10 µM unless noted
This is part of a sample that, as a whole, favours compounds with a hit. Of some 83,000 tested, about 20% had one in any assay.
parameter: growth (%)
One number for each entry, in %.

compound: COc1cc(/C=C/C(=O)CC(=O)/C=C/c2ccc(OC(=O)CCNC34CC5CC(CC(C5)C3)C4)c(OC)c2)ccc1OC(=O)CCNC12CC3CC(CC(C3)C1)C2
growth [%]: -25.1

Look up growth for the entries below, preserving their order.
1. CC(NC(=O)Oc1cccc2ccccc12)c1ccccc1 (stereo not drawn)
2. C[C@H]1O[C@@H](O[C@H]2[C@@H](O)C[C@H](O[C@H]3[C@@H](O)C[C@H](O[C@H]4CC[C@]5(C)C6CC[C@]7(C)[C@@H](C8=CC(=O)OC8)CC[C@]7(O)C6CC[C@@H]5C4)O[C@@H]3C)O[C@@H]2C)C[C@H](O)[C@@H]1O (stereo partly drawn)

Return:
68.9
-36.9

* * *

Please respond with reported growth for every item in the list.
Test system: A498 renal
assay text: NCI-60 one-dose screen, 48 h (100 = growth as untreated, 0 = no growth, -100 = all killed)
setup conditions: 10 µM unless noted
Compounds without any hit were thinned out: in the full panel of roughly 83,000, 20% have a hit. Calls of active or inactive are those of the source. The calls were made as follows: active = growth percent below 10; inactive = the rest.

Solved cases (5 shown):
molecule: COc1ccc(-c2cc(-c3nnc(SCC(=O)Nc4ccc(C(C)=O)cc4)n3-c3ccccc3)c3ccccc3n2)cc1OC
subject of test: A498 renal
result: 114% (inactive)

molecule: Fc1ccccc1C1c2ccccc2-c2nccn21 (stereo unspecified)
subject of test: A498 renal
result: 90.9% (inactive)

molecule: CCSc1nc(-c2ccco2)n2nc(-c3ccco3)cc2n1
subject of test: A498 renal
result: 91.7% (inactive)

molecule: CCCCCCCCCCCCC1CCCC(C)C1 (stereo unspecified)
subject of test: A498 renal
result: 98.5% (inactive)

molecule: C/C(=C\CCc1ccoc1)CC/C=C(\C)CCCN1CCSCC1
subject of test: A498 renal
result: 38.2% (inactive)

Look up growth for the entries below, preserving their order.
1. CSc1nc(-c2ccc(O)cc2O)c2c(=O)[nH]c(Nc3ccc(S(=O)(=O)Nc4nc(C)cc(C)n4)cc3)nc2n1
2. Cc1cc(C)cc(S(=O)(=O)n2ccc(-c3ccc4c(c3)CCC(C)(C)O4)n2)c1
3. C[N+]1(C)C2CC[C@@H]1CC(OC(=O)C(O)c1ccccc1)C2 (stereo partly specified)
4. Cc1sc2nc(NCCc3cccs3)[nH]c(=O)c2c1C
5. CCCCCN(CCCCC)CCCNc1c2c(nc3ccc(Cl)cc13)CCCC2
6. O=C(NCCCl)NCCN1c2nc3ccccc3cc2Sc2cc3ccccc3nc21
7. O=C(C(=O)N1CCOCC1)c1cn(CCCn2cc(C(=O)C(=O)N3CCOCC3)c3ccccc32)c2ccccc12

Return:
1: 113% (inactive); 2: 63% (inactive); 3: 109% (inactive); 4: 70.7% (inactive); 5: 38.4% (inactive); 6: 80.3% (inactive); 7: 134% (inactive)

Look up growth for the entries below, preserving their order.
1. O=C1C(=O)/C(=C/c2ccccc2)CCCCCC/C1=C/c1ccccc1
2. O=c1c2ccccc2c2nccn2c2cc(Cl)ccc12

Return:
1. 78.6% (inactive)
2. 77.9% (inactive)
